The reader will find reported EC50 values listed item by item below.
# TESTED TARGET: Gal4 DNA binding domain fused to the LBD of LXRα in HEK293 cells (Homo sapiens (Human), UniProt Q13133)
# Sequence (Q13133 209-447): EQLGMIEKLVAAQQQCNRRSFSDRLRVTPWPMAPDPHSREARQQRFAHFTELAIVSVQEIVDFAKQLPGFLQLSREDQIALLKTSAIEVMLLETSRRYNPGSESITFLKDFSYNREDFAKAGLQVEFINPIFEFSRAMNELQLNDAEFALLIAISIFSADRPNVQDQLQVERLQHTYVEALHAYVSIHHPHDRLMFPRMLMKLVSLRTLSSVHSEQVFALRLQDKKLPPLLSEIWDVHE
# MEASUREMENT PROTOCOL: LXR luciferase transcriptional reporter gene assay, agonist mode, LXRα
# Type: cell-based
# PROTOCOL CONDITIONS: agonist mode; read-out: Cell LXRα EC50

{"COMPOUND": "CC(C)[C@@H]1CN(c2ccc(F)c(S(C)(=O)=O)c2)CCN1c1ncc(CN(C)CCCO)c(C(F)(F)F)n1", "READOUT UNIT": "nM", "LIMIT OPERATOR": "=", "EC50": 4170}
{"COMPOUND": "Cc1ccccc1[C@H]1CN(c2cccc(S(C)(=O)=O)c2)CCN1Cc1ccc(C(F)(F)F)nc1 (single isomer, unassigned)", "READOUT UNIT": "nM", "LIMIT OPERATOR": ">", "EC50": 20000}
{"COMPOUND": "CS(=O)(=O)c1cccc(N2CCN(Cc3ccc(C(F)(F)F)c(F)c3)[C@@H](c3ccccc3)C2)c1 (single isomer, unassigned)", "READOUT UNIT": "nM", "LIMIT OPERATOR": "=", "EC50": 1480}
{"COMPOUND": "CC(C)[C@@H]1CN(c2ccc(F)c(S(C)(=O)=O)c2)CCN1c1ncc(C#N)c(C(F)(F)F)n1", "READOUT UNIT": "nM", "LIMIT OPERATOR": "=", "EC50": 549}
{"COMPOUND": "COC(=O)c1ccc(N2CCN(c3ccc(F)c(S(C)(=O)=O)c3)C[C@H]2C(C)C)nc1C(F)(F)F", "READOUT UNIT": "nM", "LIMIT OPERATOR": "=", "EC50": 649}
{"COMPOUND": "CNS(=O)(=O)c1cc(N2CCN(c3ncc(C(C)(C)O)c(C(F)(F)F)n3)[C@H](C(C)C)C2)ccc1F", "READOUT UNIT": "nM", "LIMIT OPERATOR": "=", "EC50": 646}
{"COMPOUND": "CC(C)(C)OC(=O)N1CCN(c2cccc(S(C)(=O)=O)c2)C[C@@H]1c1ccccc1", "READOUT UNIT": "nM", "LIMIT OPERATOR": ">", "EC50": 20000}
{"COMPOUND": "CCN(CCOC)C(=O)c1cnc(N2CCN(c3ccc(F)c(S(C)(=O)=O)c3)C[C@H]2C(C)C)nc1C(F)(F)F", "READOUT UNIT": "nM", "LIMIT OPERATOR": ">", "EC50": 20000}
{"COMPOUND": "CC(C)[C@@H]1CN(c2ccc(CO)c(S(C)(=O)=O)c2)CCN1c1ncc(C(N)=O)c(C(F)(F)F)n1", "READOUT UNIT": "nM", "LIMIT OPERATOR": "=", "EC50": 1130}
{"COMPOUND": "CS(=O)(=O)c1cccc(N2CCN(CC3CCC(F)(F)CC3)[C@@H](c3ccccc3)C2)c1", "READOUT UNIT": "nM", "LIMIT OPERATOR": "=", "EC50": 2620}
{"COMPOUND": "COCCCN(C)C(=O)c1cnc(N2CCN(c3ccc(F)c(S(C)(=O)=O)c3)C[C@H]2C(C)C)nc1C", "READOUT UNIT": "nM", "LIMIT OPERATOR": ">", "EC50": 20000}
{"COMPOUND": "CC(C)[C@@H]1CN(c2ccc(F)c(S(C)(=O)=O)c2)CCN1c1ncc(C(F)(F)F)cc1Cl", "READOUT UNIT": "nM", "LIMIT OPERATOR": "=", "EC50": 949}
{"COMPOUND": "CC(C)[C@@H]1CN(c2ccc(F)c(S(N)(=O)=O)c2)CCN1c1ncc(C(C)(C)O)c(C(F)(F)F)n1", "READOUT UNIT": "nM", "LIMIT OPERATOR": "=", "EC50": 2690}
{"COMPOUND": "CS(=O)(=O)c1cc(N2CCN(Cc3ccc(C(F)(F)F)nc3)C(c3ccccc3)C2)ccc1F (stereo not drawn)", "READOUT UNIT": "nM", "LIMIT OPERATOR": "=", "EC50": 11700}
{"COMPOUND": "Cc1nc(N2CCN(c3ccc(F)c(S(C)(=O)=O)c3)C[C@H]2C(C)C)ncc1C(N)=O", "READOUT UNIT": "nM", "LIMIT OPERATOR": ">", "EC50": 20000}

Where do the numbers come from? From patent US10144715B2.
